experiment: PAMPA (parallel artificial membrane permeability assay); assay type: in vitro ADME; conditions: donor pH 5.0, acceptor pH 7.4, compound at 50 μM
Collected PAMPA Pe, donor pH 5.0 values appear next to each entry.
Endpoint Label: PAMPA Pe, donor pH 5.0

Cc1ccc(S(=O)(=O)n2c(N)nc3ccccc32)cc1 [Probe 13]
491 10^−6 cm/s
CNC(=O)CCc1nc(-c2ccc(C(C)(C)C)cc2)no1 [Probe 8]
751 10^−6 cm/s
C/C=C/Cn1c(SCCCc2ccccc2)nc2c1c(=O)[nH]c(=O)n2C [Probe 17]
1269 10^−6 cm/s
CCOc1ccc(-c2nc(CSCC(=O)NC3CC3)c(C)o2)cc1 [Probe 12]
513 10^−6 cm/s
Cc1cc2nc(NCCCO)n(CC(=O)c3cc(C(C)(C)C)c(O)c(C(C)(C)C)c3)c2cc1C [Probe 4]
299 10^−6 cm/s
